Recorded pEC50, one value per entry.
# system-tested: human S1P receptor EDG-6 (S1P4) (Homo sapiens, UniProt O95977)
# Construct: expressed in transfected cells
# Sequence (O95977 1-384): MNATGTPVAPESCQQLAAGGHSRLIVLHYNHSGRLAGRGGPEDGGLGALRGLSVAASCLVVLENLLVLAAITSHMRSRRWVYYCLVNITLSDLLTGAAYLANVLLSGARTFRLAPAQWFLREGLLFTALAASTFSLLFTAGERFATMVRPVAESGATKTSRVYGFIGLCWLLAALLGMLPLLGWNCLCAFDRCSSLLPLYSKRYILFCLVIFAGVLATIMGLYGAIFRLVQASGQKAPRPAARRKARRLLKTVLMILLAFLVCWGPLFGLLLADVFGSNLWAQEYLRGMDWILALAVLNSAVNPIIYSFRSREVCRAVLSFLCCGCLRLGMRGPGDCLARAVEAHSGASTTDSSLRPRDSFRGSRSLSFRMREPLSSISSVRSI
# assay-notes: S1P receptor profiling, GTP[γ-35S] binding SPA, S1P4
# Format: biochemical
# condition-set: GTP[γ-35S] binding to membranes of transfected CHO or RH7777 cells
# Protocol: Sphingosine-1-phosphate (S1P) Receptor Profiling Agonist activities of compounds are tested on the human S1P receptors EDG-1 (S1P1), EDG-3 (S1P3), EDG-5 (S1P2), EDG-6 (S1P4) and EDG-8 (S1P5). […] The assay technology used is SPA (scintillation proximity based assay). […] Luminescence of SPA beads triggered by membrane bound GTP [γ-^35S] is quantified with a TOPcount plate reader (Packard). EC50s are calculated using standard curve fitting software. […]
pEC50: −log10 of the molar value.
recorded-metric: pEC50

1) CCCOc1ccc2cc(CC[C@@](C)(N)COP(=O)(O)O)ccc2c1 : 9.00
2) CCCCCOc1ccc2cc(CC[C@@](C)(N)COP(=O)(O)O)ccc2c1 : 9.40
3) C[C@@](N)(CCc1ccc2oc(-c3ccccc3)cc2c1)COP(=O)(O)O : 9.15
4) CCCCCc1nc2cc(CC[C@@](C)(N)COP(=O)(O)O)ccc2o1 : 8.05
5) C[C@@](N)(CCc1ccc2cc(OCCCC(F)(F)C(F)(F)F)ccc2c1)COP(=O)(O)O : 8.92

====

# system-tested: UniProt P21453
# Sequence (P21453 whole entry): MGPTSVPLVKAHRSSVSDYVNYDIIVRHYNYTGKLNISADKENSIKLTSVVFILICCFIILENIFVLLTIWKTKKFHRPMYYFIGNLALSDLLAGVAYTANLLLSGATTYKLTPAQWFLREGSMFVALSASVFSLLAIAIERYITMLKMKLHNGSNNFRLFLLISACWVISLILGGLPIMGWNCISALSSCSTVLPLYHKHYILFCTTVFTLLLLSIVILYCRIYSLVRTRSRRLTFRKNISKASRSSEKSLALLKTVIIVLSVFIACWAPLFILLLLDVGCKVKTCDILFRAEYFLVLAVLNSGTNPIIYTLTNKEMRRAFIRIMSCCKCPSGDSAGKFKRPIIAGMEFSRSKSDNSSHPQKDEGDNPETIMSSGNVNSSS
# assay-notes: S1P receptor profiling, GTP[γ-35S] binding SPA, S1P1
# condition-set: GTP[γ-35S] binding to membranes of transfected CHO or RH7777 cells
pEC50: −log10 of the molar value.
recorded-metric: pEC50

1) CCCOc1ccc2cc(CC[C@@](C)(N)COP(=O)(O)O)ccc2c1 [Example 14] : 8.55
2) C[C@@](N)(CCc1ccc2cc(OCCCC(F)(F)C(F)(F)F)ccc2c1)COP(=O)(O)O [Example 13] : 10.22
3) CCCCCOc1ccc2cc(CC[C@@](C)(N)COP(=O)(O)O)ccc2c1 [Example 12] : 9.52
4) C[C@@](N)(CCc1ccc2oc(-c3ccccc3)cc2c1)COP(=O)(O)O [Example 49] : 8.80
5) CCCCCc1nc2cc(CC[C@@](C)(N)COP(=O)(O)O)ccc2o1 [Example 42] : 7.77

====

Recorded EC50, one value per entry.
# system-tested: human S1P receptor EDG-8 (S1P5) (Homo sapiens, UniProt Q9H228)
# Sequence (Q9H228 whole entry): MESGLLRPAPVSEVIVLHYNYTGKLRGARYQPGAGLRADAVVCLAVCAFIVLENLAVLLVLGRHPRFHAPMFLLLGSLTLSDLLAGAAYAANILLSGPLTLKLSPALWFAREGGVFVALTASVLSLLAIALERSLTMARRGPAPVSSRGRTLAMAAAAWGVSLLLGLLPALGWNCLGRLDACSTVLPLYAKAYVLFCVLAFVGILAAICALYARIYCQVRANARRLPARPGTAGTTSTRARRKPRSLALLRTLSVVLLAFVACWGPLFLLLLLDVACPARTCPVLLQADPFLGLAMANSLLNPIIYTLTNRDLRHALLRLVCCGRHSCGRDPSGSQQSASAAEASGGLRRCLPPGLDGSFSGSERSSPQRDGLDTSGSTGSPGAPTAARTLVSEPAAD
# assay-notes: S1P receptor profiling, GTP[γ-35S] binding SPA, S1P5
# condition-set: GTP[γ-35S] binding to membranes of transfected CHO or RH7777 cells
recorded-metric: EC50 (nM)

1) C[C@@](N)(CCc1ccc2oc(-c3ccccc3)cc2c1)COP(=O)(O)O [Example 49] : 0.4
2) CCCCCc1nc2cc(CC[C@@](C)(N)COP(=O)(O)O)ccc2o1 [Example 42] : 5
3) CCCOc1ccc2cc(CC[C@@](C)(N)COP(=O)(O)O)ccc2c1 [Example 14] : 0.8
4) C[C@@](N)(CCc1ccc2cc(OCCCC(F)(F)C(F)(F)F)ccc2c1)COP(=O)(O)O [Example 13] : 0.4
5) CCCCCOc1ccc2cc(CC[C@@](C)(N)COP(=O)(O)O)ccc2c1 [Example 12] : 0.1

Origin of measurements: patent US7825260B2
